- ASSAYED_TARGET: Hsp70-NBD (Homo sapiens)
- PROTOCOL_NOTES: ITC binding of modified ADP analogues to Hsp70-NBD
- STATED_CONDITIONS: ITC, 25 °C, Hsp70-NBD, binding enthalpy change
METRIC: ΔΗ (kcal/mol)
Kindly answer with a numeric value in kcal/mol, unit omitted.

Enquiry: Would you kindly share the measured ΔΗ for O=P(O)(O)OP(=O)(O)OC[C@H]1O[C@@H](n2cnc3c(NCCc4ccccc4)ncnc32)[C@H](O)[C@@H]1O ?
Return: -10.8

Enquiry: Would you kindly share the measured ΔΗ for O=P(O)(O)OP(=O)(O)OC[C@H]1O[C@@H](n2cnc3c(NC4CCCCC4)ncnc32)[C@H](O)[C@@H]1O [6-cHe ADP, N6-cyclohexyladenosine-5’-diphosphate] ?
Return: -4.967

Enquiry: Would you kindly share the measured ΔΗ for O=P(O)(O)OP(=O)(O)OC[C@H]1O[C@@H](n2cnc3c(NCc4ccccc4)ncnc32)[C@H](O)[C@@H]1O [6-Bn ADP, N6-benzyladenosine-5’-diphosphate] ?
Return: -3.941

Enquiry: Would you kindly share the measured ΔΗ for O=P(O)(O)OP(=O)(O)OC[C@H]1O[C@@H](n2cnc3c(NCc4ccco4)ncnc32)[C@H](O)[C@@H]1O [6-Fu ADP, N6-furfuryladenosine-5’-diphosphate] ?
Return: -2.395

Enquiry: Would you kindly share the measured ΔΗ for Nc1ncnc2c1ncn2[C@@H]1O[C@H](COP(=O)(O)OP(=O)(O)O)[C@@H](O)[C@H]1O [ADP, reference compound] ?
Return: -5.731

Enquiry: Would you kindly share the measured ΔΗ for Cc1cccc(CNc2ncnc3c2ncn3[C@@H]2O[C@H](COP(=O)(O)OP(=O)(O)O)[C@@H](O)[C@H]2O)c1 ?
Return: -4.787

###

- ASSAYED_TARGET: Hsp70-NBD (Homo sapiens, UniProt P0DMV8)
- Sequence (P0DMV8 1-381): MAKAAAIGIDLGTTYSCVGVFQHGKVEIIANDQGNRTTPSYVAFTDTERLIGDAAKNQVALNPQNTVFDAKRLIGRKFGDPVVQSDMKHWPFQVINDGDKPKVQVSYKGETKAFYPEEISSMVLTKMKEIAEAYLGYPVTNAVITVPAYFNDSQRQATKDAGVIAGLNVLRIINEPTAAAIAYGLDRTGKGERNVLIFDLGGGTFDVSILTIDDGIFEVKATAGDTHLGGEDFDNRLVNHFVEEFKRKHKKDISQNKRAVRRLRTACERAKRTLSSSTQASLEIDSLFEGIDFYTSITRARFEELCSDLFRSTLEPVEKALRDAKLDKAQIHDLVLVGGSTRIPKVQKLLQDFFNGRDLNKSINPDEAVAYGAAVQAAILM
- PROTOCOL_NOTES: ITC binding of modified ADP analogues to Hsp70-NBD
- STATED_CONDITIONS: ITC, 25 °C, Hsp70-NBD
METRIC: Kd (nM)
Kindly answer with a numeric value in nM, unit omitted.

Enquiry: Would you kindly share the measured Kd for Nc1ncnc2c1ncn2[C@@H]1O[C@H](COP(=O)(O)OP(=O)(O)O)[C@@H](O)[C@H]1O [ADP, reference compound] ?
Return: 43.5

###

- ASSAYED_TARGET: Hsp70-NBD (Homo sapiens)
- PROTOCOL_NOTES: ITC binding of modified ADP analogues to Hsp70-NBD
- STATED_CONDITIONS: ITC, 25 °C, Hsp70-NBD, binding entropy change
METRIC: ΔS (J/mol·K)
Kindly answer with a numeric value in J/mol·K, unit omitted.

COMPOUND	OBS_VALUE
O=P(O)(O)OP(=O)(O)OC[C@H]1O[C@@H](n2cnc3c(NCc4ccccc4)ncnc32)[C@H](O)[C@@H]1O [6-Bn ADP, N6-benzyladenosine-5’-diphosphate]	53.04

Enquiry: Value wanted: ΔS (Hsp70-NBD (Homo sapiens)) of entry O=P(O)(O)OP(=O)(O)OC[C@H]1O[C@@H](n2cnc3c(NC4CCCCC4)ncnc32)[C@H](O)[C@@H]1O [6-cHe ADP, N6-cyclohexyladenosine-5’-diphosphate]
Return: 57.67

Enquiry: Value wanted: ΔS (Hsp70-NBD (Homo sapiens)) of entry O=P(O)(O)OP(=O)(O)OC[C@H]1O[C@@H](n2cnc3c(NCc4ccco4)ncnc32)[C@H](O)[C@@H]1O [6-Fu ADP, N6-furfuryladenosine-5’-diphosphate]
Return: 68.77
